Quick reference for growth among some compounds
- System: NCI-H226 lung
- method.summary: NCI-60 one-dose screen, 48 h (100 = growth as untreated, 0 = no growth, -100 = all killed)
- measurement.context: 10 µM unless noted
The panel holds about 83,000 compounds, 20% with a hit somewhere; the sample as a whole holds those more often.
attribute.measured: growth (%)

{"columns": ["compound", "quantitative.readout"],
 "data": [
  ["CN1C(=O)/C(=C/c2ccc(C(=O)Nc3ncc(Cc4cccc(C(F)(F)F)c4)s3)cc2)SC1=S", 58],
  ["CCOC(=O)c1c(C)nc2c(c1N)C(=O)C(=O)N2Cc1ccc(OC)cc1", 90.8],
  ["N#Cc1c(-c2ccccc2)nc2c(c(-c3ccc(Cl)cc3)nn2-c2ccccc2)c1-c1ccc([N+](=O)[O-])cc1", 94.7],
  ["CC(C)CCC[C@@H](C)[C@H]1CC[C@H]2[C@@H]3CC=C4c5sc(Nc6cc(C(F)(F)F)cc(C(F)(F)F)c6)nc5CC[C@]4(C)[C@H]3CC[C@]12C", 104],
  ["COc1ccc(-c2cn(Cc3cc4ccccc4s3)nn2)cc1OCCN1CCCCC1", 95.6],
  ["O=C(Nc1ccc(Nc2ccncc2)cc1)c1ccc(Nc2ccnc3ccc([N+](=O)[O-])cc23)cc1", 89.8],
  ["COc1c2c(cc3c1C(=O)N[C@@H]1[C@@H](O)[C@@H](O)[C@H](O)C[C@@H]31)OCCO2", 92.6],
  ["O=C1C=CC2(O)OC/C(=C\\c3ccccc3)C(O)=C2C1=O (stereo not drawn)", 81],
  ["Cc1cc(=O)oc2cc(Oc3nc(Br)cn4c(Br)cnc34)ccc12", 53.6],
  ["COc1ccc(/C=C(\\C(=O)NCc2cccnc2)S(=O)(=O)c2ccccc2)cc1OC", 74.6],
  ["Cc1nc2ccccc2c(/C=C/c2ccc(F)cc2)c1C(=O)/C=C/c1ccccc1", 50.6],
  ["COC(=O)c1c2c(c[n+]([O-])c1C)C(=O)C=C(NCc1ccccc1)C2=O", -90.8],
  ["COc1ccc(/C=C/C(c2cc(OC)c(OC)c(OC)c2)n2cncn2)cc1O (stereo not drawn)", 62.2],
  ["CCN(CCNc1ccc(C)c2sc3cc(Cl)ccc3c(=O)c12)CC(C)(C)O", 87.6],
  ["Cc1ccc(-c2csc(NC(=O)CSc3nc(N)cc(N)n3)n2)cc1", 96.3],
  ["N#Cc1c(-c2ccc(Br)cc2)nc2c(N=Nc3ccc(S(N)(=O)=O)cc3)c(N)nn2c1N", 66.2],
  ["CC(C)(C)c1ccc(S(=O)(=O)Oc2ccc(-c3sc4cc(OS(=O)(=O)c5ccc(C(C)(C)C)cc5)ccc4c3C(=O)c3ccc(OCCN4CCCCC4)cc3)cc2)cc1", 94.7],
  ["COc1ccc(/C=C(/C(=O)N2CCNCC2)c2cc(OC)c(OC)c(OC)c2)cc1O", 88.7]
]}
